Each recorded value in this set is attributed to PubChem BioAssay (NCI).

For each record, write down the corresponding GI50.
Test system: OVCAR-8 ovarian
Assay: NCI tumour cell line growth inhibition, 48 h

Answered examples (6):
{"smiles.structure": "Cn1cc(CO)c2ccccc21", "readout.name": "GI50", "result": "> 100 µM"}
{"smiles.structure": "O=C(Nc1ccc(Cl)cc1)Nc1ccccc1CNc1nc(Nc2ccc(OCCN3CCCC3)cc2)ncc1Cl", "readout.name": "GI50", "result": "1.25 µM"}
{"smiles.structure": "NC(N)=N/N=C/c1c(-c2ccc(Cl)c([N+](=O)[O-])c2)nc2n1CCS2", "readout.name": "GI50", "result": "8.89 µM"}
{"smiles.structure": "CCOCNc1ccc(N2C(=O)/C(=C/c3ccc(N(CC)CC)cc3)N=C2c2ccccc2)cc1", "readout.name": "GI50", "result": "10.8 µM"}
{"smiles.structure": "Cn1cnc([N+](=O)[O-])c1Sc1nc(N)nc2nc[nH]c12", "readout.name": "GI50", "result": "3.68 µM"}
{"smiles.structure": "Oc1[nH]c2ccccc2c1/C=c1/cc2c(c(-c3ccc(C(F)(F)F)cc3)n1)=Nc1ccccc1-2", "readout.name": "GI50", "result": "4.99 µM"}

Exam item: Send back OVCAR-8 ovarian GI50 of CCCn1cnc2c(SCc3ccccc3)nc(N)nc21 only.
Marked response: 71.8 µM

###

Tested on: MCF7 breast
Test: NCI tumour cell line growth inhibition, 48 h
For each record, write down the corresponding TGI.

Answered examples (2):
{"compound": "O=CNNC(=O)Nc1ccc(Cl)cc1", "TGI": "> 100 µM"}
{"compound": "Nc1ccn([C@@H]2C(F)=C(CO)[C@@H](O)[C@H]2O)c(=O)n1", "TGI": "> 100 µM"}

Count: 6. Required value per item: TGI.
1. COC(=O)c1c(OC)cc2cc3c(c(O)c2c1C)C(=O)C1(O)C(=O)C=C(OC)C(OC(=O)CC(C)N)=C1C3=O (stereo not given)
2. CC12OC(C(=O)C13CCC3)C1C(=O)c3ccccc3C(=O)C12 (stereo not given)
3. O=C(Cc1ccc(/C=C/C(=O)c2ncc[nH]2)cc1)Nc1ccc(C(F)(F)F)cc1
4. CC1(C)CCC2(C(=O)OC3OC(CO)C(O)C(O)C3O)CCC3(CO)C(=CCC4C5(C)CC(O)C(O)C(C)(C(=O)OC6OC(CO)C(O)C(O)C6O)C5CCC43C)C2C1 (stereo not given)
5. Cn1cc(CO)c2ccccc21
6. CC(C)(C)OC(=O)N1CCc2c(n(C/C=C/c3ccccc3)[nH]c2=O)C1

Marked response:
1: 67.3 µM; 2: > 100 µM; 3: 4.31 µM; 4: > 100 µM; 5: > 100 µM; 6: > 100 µM

Count: 3. Required value per item: TGI.
1. COc1cc2cc(C(=O)N3CC(CCl)c4c3cc([N+](C)(C)Cc3ccc([N+](=O)[O-])n3C)c3ccccc43)[nH]c2c(OC)c1OC (stereo not given)
2. O=C(/C=C/c1ccco1)c1cccc(C(=O)/C=C/c2ccco2)n1
3. COc1ccc2c(c1)nc1n2C(c2ccc(F)cc2)SC1 (stereo not given)

Marked response:
1. 12.5 µM
2. > 100 µM
3. > 100 µM

Count: 3. Required value per item: TGI.
1. CC(C)CCCC(C)[C@H]1CC[C@H]2N=C(Nc3ccccc3)CCC[C@]12C (stereo not given in full)
2. O=C(Nc1ccccc1O)c1ccc(CNC(=O)c2ccsc2Nc2ccnc(C(F)(F)F)c2)cc1
3. CC1(C)C2CCC13C(=O)C1OC3(C2)C2C(=O)c3c(O)cccc3C(=O)C12 (stereo not given)

Marked response:
1: 3.57 µM; 2: 10.4 µM; 3: 15.4 µM

Count: 4. Required value per item: TGI.
1. Cc1cc(=O)oc2cc(OCCn3c(C)nn(-c4ccc(Cl)cc4)c3=O)ccc12
2. COC(=O)C(C(=O)C(=O)NC1Nc2ccc(C)cc2S1)c1nc2ccc(Cl)cc2[nH]c1=O (stereo not given)
3. Cn1c(=O)sc2cc(C(=S)N3CCOCC3)ccc21
4. CC(C)(CO)N=Cc1ccccc1[O-].CC(C)(CO)N=Cc1ccccc1[O-].[Co+2]

Marked response:
1: > 100 µM; 2: > 100 µM; 3: > 100 µM; 4: > 100 µM

###

Tested on: SF-539 CNS
Assay: NCI tumour cell line growth inhibition, 48 h
readout.name: TGI

Count: 5. Required value per item: TGI.
1. COc1ccc(C2ONC3=NCCN32)cc1 (stereo not given)
2. COc1ccc(-c2c3ccccc3c(-c3ccc(OCCCCCBr)cc3)c3ccccc23)cc1
3. CCc1cccc(CC)c1/C=C/c1cncc(C(=O)NC)c1
4. O=C1CSC2(CC(/C=C/c3ccccc3Br)=NN2c2cccc(S(=O)(=O)O)c2)N1c1nc2ccccc2s1 (stereo not given)
5. CC(C)(C)c1cc(CCC(=O)Nc2ccc(Cl)cc2Cl)nc(N)n1

Marked response:
1. > 100 µM
2. > 100 µM
3. > 25 µM
4. > 100 µM
5. > 100 µM

###

System: HCT-15 colon
Assay: NCI tumour cell line growth inhibition, 48 h
For each record, write down the corresponding GI50.

{"smiles.structure": "COC(=O)[C@H](Cc1ccccc1)NC(=O)c1csc([C@@H](C[C@H](C(C)C)N(C)C(=O)[C@@H](NC(=O)[C@H]2CCCN2C)C2CC2)OC(C)=O)n1", "readout.name": "GI50", "result": "855 nM"}
{"smiles.structure": "c1cnc2[nH]cc(-c3csc(-c4cn(CCCN5CCCCC5)c5ccccc45)n3)c2c1", "readout.name": "GI50", "result": "1720 nM"}
{"smiles.structure": "COc1ccccc1/C=C\\C(=O)c1ccccc1", "readout.name": "GI50", "result": "4800 nM"}

Exam item: Send back HCT-15 colon GI50 of CCOCNc1ccc(N2C(=O)/C(=C/c3ccc(N(CC)CC)cc3)N=C2c2ccccc2)cc1 only.
Marked response: 1060 nM

###

Tested on: NCI-H226 lung
Experiment: NCI tumour cell line growth inhibition, 48 h
readout.name: TGI

Answered examples (6):
{"compound": "COc1ccc2[nH]c3c(=O)[nH]ncc3c2c1", "target.of.assay": "NCI-H226 lung", "TGI": "> 100 µM"}
{"compound": "CC1=C2C(=O)c3ccccc3C(=O)[C@H]2C[C@@H](N2CCCCCC2=O)O1", "target.of.assay": "NCI-H226 lung", "TGI": "> 100 µM"}
{"compound": "Cc1cc2occ(-c3ccc(Cl)cc3)c2c(=O)o1", "target.of.assay": "NCI-H226 lung", "TGI": "> 100 µM"}
{"compound": "Nc1ccn([C@@H]2C(F)=C(CO)[C@@H](O)[C@H]2O)c(=O)n1", "target.of.assay": "NCI-H226 lung", "TGI": "> 100 µM"}
{"compound": "CC[C@H](C)[C@H](NC(=O)[C@H]1CCCCN1C)C(=O)N(C)[C@H](C[C@@H](OC(C)=O)c1nc(C(=O)N[C@@H](Cc2ccccc2)C[C@H](C)C(=O)OC)cs1)C(C)C", "target.of.assay": "NCI-H226 lung", "TGI": "< 0.0025 µM"}
{"compound": "CC(C)(C)[Si](C)(C)OCC1OC(n2cnc3c(N)ncnc32)C(O)C1O (configuration not stated)", "target.of.assay": "NCI-H226 lung", "TGI": "> 100 µM"}

Note: attention shifts to another entry.
Exam item: Send back NCI-H226 lung TGI of CCOC(=O)C[C@@]12CCCNC1(C)CCc1ccccc12 (some centres not stated) only.
Marked response: > 100 µM

###

For each record, write down the corresponding TGI.
Test system: HOP-92 NSCLC
Assay: NCI tumour cell line growth inhibition, 48 h

{"molecule": "O=C(O)[C@@H]1CCCC[C@@H]1C(=O)N(C1CCCCC1)C1CCCCC1", "readout.name": "TGI", "result": "> 100 µM"}
{"molecule": "Cc1cc(=O)[nH]c(NNC(C#N)c2ccc([N+](=O)[O-])cc2)n1 (stereo not drawn)", "readout.name": "TGI", "result": "> 100 µM"}

Note: attention shifts to another entry.
Exam item: Write down TGI measured for item CCCCCCCCCCCCCCCCOCC(Cl)COP(=O)(O)OP(=O)(O)OCC1OC(n2cnc3c(N)ncnc32)C(O)C1O (stereo not drawn)
Marked response: > 100 µM

###

Test system: OVCAR-4 ovarian
Test: NCI tumour cell line growth inhibition, 48 h
For each record, write down the corresponding TGI.

Answered examples (2):
{"smiles.structure": "Cn1c(=O)sc2cc(C(=S)N3CCOCC3)ccc21", "TGI": "> 100 µM"}
{"smiles.structure": "CC(C)(C)c1cc(CCC(=O)Nc2ccc(Cl)cc2Cl)nc(N)n1", "TGI": "> 100 µM"}

Note: attention shifts to another entry.
Exam item: Write down TGI measured for item O=C1C(c2ccccc2)=C(c2ccccc2)[C@H](c2ccccc2)[C@]1(Cc1nnn(-c2ccc([N+](=O)[O-])cc2)c1N1CCOCC1)c1ccccc1
Marked response: > 37.5 µM
